Every entry's value here was drawn from PubChem BioAssay (NCI).

Could you please report measured TGI for the items listed next?
- Test system: SF-295 CNS
- protocol-text: NCI tumour cell line growth inhibition, 48 h
Numbers only, in µM.

# smiles-string, units-symbol, data-value
records = [
    ("COc1ccc(-c2c(-c3ccccc3)c(C)nc3nc(SC)nc(SC)c23)cc1OC", "µM", 31.5),
    ("O=C1CC/C(=C/COc2cc(=O)oc3ccccc23)O1", "µM", 40.6),
    ("CCn1c(CCl)nc2c1C(=O)c1ccccc1C2=O", "µM", 3.54),
]

response.value for "Clc1ccc(C[P+](c2ccccc2)(c2ccccc2)c2ccccc2)cc1Cl" (field: TGI) = 22.2
